Measured growth inhibition, listed per entry for reference.
Test system: DIPGX37 (H3.3 K27M diffuse intrinsic pontine glioma line)
Experiment: growth inhibition (% activity, log2 RLU normalised to DMSO / staurosporine); higher = more growth inhibition
Conditions: 33 µM
Give a bare numeral; the unit % is implied.

The cases that follow already have their growth inhibition on record.
{"columns": ["compound", "value-observed"],
 "data": [
  ["O=c1c(-c2ccc(O)cc2)coc2cc(O)cc(O)c12", 2.29],
  ["CNC(=C[N+](=O)[O-])NCCSCc1csc(CN(C)C)n1", -2.32]
]}

Identify measured growth inhibition corresponding to CN1CCCCC1CCN1c2ccccc2Sc2ccc([S+](C)[O-])cc21 (stereo unspecified) 1.07

Identify measured growth inhibition corresponding to Cc1onc(-c2ccccc2)c1-c1ccc(S(N)(=O)=O)cc1 1.05

Identify measured growth inhibition corresponding to CN1CCC(=C2c3ccccc3C=Cc3ccccc32)CC1 -0.405

Identify measured growth inhibition corresponding to CCN(CCCc1ccccc1)CCCc1ccccc1 0.545

Identify measured growth inhibition corresponding to Cc1cccc(CN2CCN(C(c3ccccc3)c3ccc(Cl)cc3)CC2)c1 (stereo unspecified) 6.46

Identify measured growth inhibition corresponding to O=C(O)c1cccnc1 1.13

Identify measured growth inhibition corresponding to Cc1cccc(Nc2ccccc2C(=O)O)c1C -1.52

Identify measured growth inhibition corresponding to O=C1O[C@H]([C@@H](O)CO)C(O)=C1O 2.39

Identify measured growth inhibition corresponding to CCOC(=O)C1=C(C)NC(C)=C(C(=O)OC)C1c1cccc(Cl)c1Cl (stereo unspecified) 0.16
